Sourced from ChEMBL document CHEMBL4689842

system: HEK-293T; assay: Multiplex assay against HEK293T; assay type: toxicity, cell-based; details: human, 12 h, 1 µM, compound concentration 1 uM, replicate 1
measured.property: Population Hoechst High Intensity Objects (%)

| molecule | reading |
| --- | --- |
| CCOc1ccn(-c2ccc(F)cc2)c(=O)c1C(=O)Nc1ccc(Oc2ccnc(N)c2Cl)c(F)c1 [BMS-777607] | 10 |
| CC(C)[C@H](CO)Nc1nc(Nc2cccc(Cl)c2)c2ncn(C(C)C)c2n1 [PURVALANOLA] | 13 |
| CCCCN(CC)c1nc(C)nc2c1c(C)cn2-c1c(C)cc(C)cc1C.Cl | 16 |
| Cl.NC[C@@H]1O[C@H](C23CC4CC(CC(C4)C2)C3)Cc2c1ccc(O)c2O | 11 |
| CC[C@@H]1C(=O)N(C)c2cnc(Nc3ccc(C(=O)NC4CCN(C)CC4)cc3OC)nc2N1C1CCCC1 [BI-2536] | 12 |
| C=CC(=O)Nc1cc(-n2c(=O)ccc3cnc4ccc(-c5ccc(NS(C)(=O)=O)cc5)cc4c32)ccc1C | 22 |
| CC(Cc1ccc(O)c(O)c1)C(C)Cc1ccc(O)c(O)c1 (configuration not stated) [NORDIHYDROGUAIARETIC ACID] | 16 |
| Cc1ccc(S(=O)(=O)NC2c3ccccc3Oc3ccccc32)cc1 | 11 |
| Oc1cccc(-c2nc(N3CCOCC3)c3oc4ncccc4c3n2)c1 [PI-103] | 21 |
| CN(c1cc(C(F)(F)F)nc(OCCC(=O)O)n1)c1cccc2c1CCC2 | 14 |
| CN1C(=O)[C@@H](NC(=O)c2cc3ccccc3[nH]2)N=C(c2ccccc2)c2ccccc21 [DEVAZEPIDE] | 11 |
| Cc1c(Nc2ccc(S(=O)(=O)N3CCN(C)CC3)cc2F)nc2ccc(Nc3cnn(C4CC4)c3)cn2c1=O | 16 |
| Cc1c(P(=S)(c2ccccc2)c2ccccc2)n2ccccc2[n+]1C/C=C/c1ccccc1.[Br-] | 17 |
| CC[C@H](Nc1ncnc2[nH]cnc12)c1nc2cccc(F)c2c(=O)n1-c1ccccc1 [IDELALISIB] | 14 |
| Cc1ccc(NC(=O)Nc2cc(C(F)(F)F)ccc2F)cc1Nc1ccc2c(c1)NC(=O)/C2=C\c1ccc[nH]1 | 16 |
| CCCCCNC(=N)N/N=C/c1c[nH]c2ccc(OC)cc12.O=C(O)/C=C\C(=O)O [TEGASEROD MALEATE] | 16 |

* * *

Collected Growth Rate values appear next to each entry.
system: HEK-293T; test: Incucyte cell viability with HEK293T; format: toxicity, cell-based; details: human, 12 h, 10 µM, compound concentration 10 uM, replicate number 1, timepoint 12 hours; also: filed as whole numbers so only -1 and 0 and 1 occur

| molecule | experimental.system | Growth Rate |
| --- | --- | --- |
| COc1cccc(-c2c(C)n(Cc3c(F)cccc3C(F)(F)F)c(=O)n(C[C@H](NCCCC(=O)[O-])c3ccccc3)c2=O)c1F.[Na+] [ELAGOLIX SODIUM] | HEK-293T | 1 |
| Cl.Cn1c2c(c3ccc(Cl)c(Cl)c31)C(C#N)C1(CCNCC1)NC2=O (stereo not drawn) | HEK-293T | 0 |
| CN1C(=O)[C@@H](NC(=O)c2cc3ccccc3[nH]2)N=C(c2ccccc2)c2ccccc21 [DEVAZEPIDE] | HEK-293T | 1 |
| CN1CCN(c2ccc(-c3cccc(CN4CCOCC4)c3)cc2NC(=O)c2c[nH]c(=O)cc2C(F)(F)F)CC1 | HEK-293T | 0 |
| Cl.O=C(Cc1ccc(Cl)c(Cl)c1)N1CCCC[C@H]1CN1CCCC1 | HEK-293T | 0 |
| CCN1CCC[C@H]1CNC(=O)c1c(OC)ccc(Br)c1OC [REMOXIPRIDE] | HEK-293T | 1 |
| CC(C)[C@H](CO)Nc1nc(Nc2cccc(Cl)c2)c2ncn(C(C)C)c2n1 [PURVALANOLA] | HEK-293T | 0 |
| COc1cc(OC)c(NC(=O)c2ccc(Cc3cc4c(cc3C)C(C)(C)CCC4(C)C)o2)c(OC)c1 | HEK-293T | 0 |
